test: Pharmacokinetics in Sprague Dawley rats, single subcutaneous or intravenous dose (incl. 10, 30, 100 nmol/kg dose response); type: in vivo; settings: male, Sprague Dawley, rat, plasma, sc, 190 nmol/kg, single subcutaneous dose 190 nmol/kg, individual animal
*1 amine or outer side, *2 acyl side, *3 side chain or, on linkers, in order; H or OH if unused. [ ]: non-standard residue; d: D form. The star is where a group is joined. C20 diacid = O=C(O)CCCCCCCCCCCCCCCCCCC(=O)*; γGlu = O=C(O)[C@H](CCC(=O)[*:2])N[*:1]; εLys = N[C@@H](CCCCN[*:1])C(=O)[*:2]; αMeL = CC(C)C[C@](C)(N)C(=O)O; AEEA = NCCOCCOCC(=O)O; Aib = CC(C)(N)C(=O)O
Measurement kind: half-life (h)
Kindly provide the numeric value in h only, without the unit symbol.

[Q] I would be grateful if you could share the reported half-life for {C20 diacid-εLys-AEEA-γGlu}-GSPSIVTS[αMeL]DVPT[Aib][αMeL]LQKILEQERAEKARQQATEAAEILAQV-NH2 [SEQ ID NO: 25] .
[A] 14.8

###

experiment: Pharmacokinetics in Sprague Dawley rats, single subcutaneous or intravenous dose (incl. 10, 30, 100 nmol/kg dose response); assay type: in vivo; conditions: male, Sprague Dawley, rat, plasma, sc, 10 nmol/kg, dose response, single subcutaneous dose 10 nmol/kg, individual animal, read-out: CL/F (converted)
*1 amine or outer side, *2 acyl side, *3 side chain or, on linkers, in order; H or OH if unused. Side-chain parts run from the residue outwards. [ ]: non-standard residue; d: D form. The star is where a group is joined. C20 diacid = O=C(O)CCCCCCCCCCCCCCCCCCC(=O)*; γGlu = O=C(O)[C@H](CCC(=O)[*:2])N[*:1]; εLys = N[C@@H](CCCCN[*:1])C(=O)[*:2]; pGlu = O=C1CC[C@@H](C(=O)O)N1; αMeL = CC(C)C[C@](C)(N)C(=O)O; AEEA = NCCOCCOCC(=O)O; Aib = CC(C)(N)C(=O)O
Exercise: for every item that follows, state its recorded CL/F.
Kindly provide the numeric value in mL/h/kg only, without the unit symbol.

[Q] I would be grateful if you could share the reported CL/F for [pGlu]GSPSGIVTS[αMeL]DVPT[Aib][αMeL]LQKILEQERAEKARQQAK([γGlu-AEEA-εLys-C20 diacid])EAAEILAQV-NH2 [SEQ ID NO: 22] .
[A] 3.75

[Q] I would be grateful if you could share the reported CL/F for Ac-GSPSIVTS[αMeL]DVPT[Aib][αMeL]LQKILEQERAEKARQQAK([γGlu-AEEA-εLys-C20 diacid])EAAEILAQV-NH2 [SEQ ID NO: 1] .
[A] 5.1

[Q] I would be grateful if you could share the reported CL/F for {C20 diacid-εLys-AEEA-γGlu}-GSPSIVTS[αMeL]DVPT[Aib][αMeL]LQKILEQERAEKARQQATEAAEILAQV-NH2 [SEQ ID NO: 25] .
[A] 9.7

###

Biological target: human CRHR1 (Homo sapiens, UniProt P34998)
Construct: expressed in transfected cells
Sequence (P34998 24-415): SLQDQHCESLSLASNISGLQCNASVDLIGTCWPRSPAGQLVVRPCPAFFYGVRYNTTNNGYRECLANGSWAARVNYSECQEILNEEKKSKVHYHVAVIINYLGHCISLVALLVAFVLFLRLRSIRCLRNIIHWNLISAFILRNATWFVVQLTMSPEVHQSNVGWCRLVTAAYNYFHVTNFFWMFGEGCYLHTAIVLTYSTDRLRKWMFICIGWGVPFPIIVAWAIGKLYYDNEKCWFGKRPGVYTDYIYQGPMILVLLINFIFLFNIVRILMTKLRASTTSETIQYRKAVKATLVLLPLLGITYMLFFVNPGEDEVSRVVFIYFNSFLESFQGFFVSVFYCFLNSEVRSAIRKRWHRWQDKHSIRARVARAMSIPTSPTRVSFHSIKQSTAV
Experiment: Human CRHR1 cAMP assay (HTRF) in HEK293 cells stably expressing human CRHR1
Type: cell-based
Settings: HEK293 cells overexpressing human CRHR1; relative EC50, maximum 66 nM human UCN1; mean ± SE; read-out: hCRHR1 cAMP EC50 (pM, ± SE)
*1 amine or outer side, *2 acyl side, *3 side chain or, on linkers, in order; H or OH if unused. Bridges are numbered along the chain shown (N, C = ends). Roman numbers before positions name the chains, in order. Side-chain parts run from the residue outwards. [ ]: non-standard residue; d: D form. The star is where a group is joined. C20 diacid = O=C(O)CCCCCCCCCCCCCCCCCCC(=O)*; C18 diacid = O=C(O)CCCCCCCCCCCCCCCCC(=O)*; γGlu = O=C(O)[C@H](CCC(=O)[*:2])N[*:1]; εLys = N[C@@H](CCCCN[*:1])C(=O)[*:2]; pGlu = O=C1CC[C@@H](C(=O)O)N1; αMeL = CC(C)C[C@](C)(N)C(=O)O; AEEA = NCCOCCOCC(=O)O; Aib = CC(C)(N)C(=O)O; Ahx = NCCCCCC(=O)O
Exercise: for every item that follows, state its recorded EC50.

[Q] I would be grateful if you could share the reported EC50 for Ac-GSPSIVTS[αMeL]DVPT[Aib][αMeL]LQKILEQERAEKARQQAK([γGlu-AEEA-εLys-C18 diacid])EAAEILAQV-NH2 [SEQ ID NO: 21] .
[A] > 1e+07 pM

[Q] I would be grateful if you could share the reported EC50 for I: Ac-GSPSIVTS[αMeL]DVPT[Aib][αMeL]LQKILEQERAEKARQQAKEAAEILAQV-NH2 / II: {C20 diacid}-PPPPPP[γGlu] (amide I:33-II:C) [SEQ ID NO: 15] .
[A] > 1e+07 pM

[Q] I would be grateful if you could share the reported EC50 for [pGlu]GSPSGIVTS[αMeL]DVPT[Aib][αMeL]LQKILEQERAEKARQQAKEAAEILAQV-NH2 [SEQ ID NO: 23] .
[A] > 1e+07 pM

[Q] I would be grateful if you could share the reported EC50 for Ac-GSPSIVTS[αMeL]DVPT[Aib][αMeL]LQKILEQERAEKARQQAK([Ahx-AEEA-γGlu-C20 diacid])EAAEILAQV-NH2 [SEQ ID NO: 4] .
[A] > 1e+07 pM

[Q] I would be grateful if you could share the reported EC50 for [pGlu]GSPSGIVTS[αMeL]DVPT[Aib][αMeL]LQKILEQERAEKARQQAK([γGlu-AEEA-εLys-C20 diacid])EAAEILAQV-NH2 [SEQ ID NO: 22] .
[A] > 1e+07 pM

[Q] I would be grateful if you could share the reported EC50 for Ac-GSPSIVTS[αMeL]DVPT[Aib][αMeL]LQKILEQERAEKARQQAK([γGlu-Pro-Lys-Glu-εLys-C20 diacid])EAAEILAQV-NH2 [SEQ ID NO: 13] .
[A] > 1e+07 pM
